measured-on: UniProt Q13258
Sequence (Q13258 whole entry): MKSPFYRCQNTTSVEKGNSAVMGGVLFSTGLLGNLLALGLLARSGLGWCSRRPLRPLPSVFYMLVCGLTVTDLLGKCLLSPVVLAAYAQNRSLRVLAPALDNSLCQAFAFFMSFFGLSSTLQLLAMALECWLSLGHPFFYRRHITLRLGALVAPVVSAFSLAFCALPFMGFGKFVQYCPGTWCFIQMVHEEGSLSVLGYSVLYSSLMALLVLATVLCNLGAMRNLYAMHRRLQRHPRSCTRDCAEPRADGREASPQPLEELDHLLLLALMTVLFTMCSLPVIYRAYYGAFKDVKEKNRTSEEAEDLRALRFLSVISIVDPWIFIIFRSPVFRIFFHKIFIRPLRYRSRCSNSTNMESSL
protocol-text: cAMP antagonism test on the human prostaglandin D receptor (HTRF cAMP detection)
Assay type: cell-based
particulars: selectivity towards hDP, IC50 measured by cAMP antagonism test
metric-name: Selectivity hEP2/hDP

{"compound": "COCCNC(=O)c1ccc2nn(CC3CN(C(=O)c4ccc(C(F)(F)F)cc4F)C3)cc2c1OC", "observed": "xxx (xxx > 100)"}
{"compound": "COCCNC(=O)c1ccc2nn(CC3CCN(C(=O)c4ccc(-c5cnc(C)nc5)cc4)CC3)cc2c1C", "observed": "xxx (xxx > 100)"}
{"compound": "Cc1c(C(=O)NCC(C)OCC2CC2)ccc2nn(CC3CCN(C(=O)c4ccc(-c5ccc(F)cc5)cc4)CC3)cc12 (racemic)", "observed": "xx (xx: 10-100)"}
{"compound": "O=C(NCCOCC1CC1)c1ccc2nn(CC3CCN(C(=O)c4ccc(-c5ccc(F)cc5)cc4)CC3)cc2c1OC(F)F", "observed": "xxx (xxx > 100)"}
{"compound": "COCCNC(=O)c1ccc2nn(CC3CCN(C(=O)c4ccc(-c5cccc(OC)n5)cc4)CC3)cc2c1C", "observed": "xxx (xxx > 100)"}

List Selectivity hEP2/hDP for every entry below, keeping the order given.
1. Cc1c(C(=O)NCCN2CCOCC2)ccc2nn(CC3CCN(C(=O)c4ccc(C(F)(F)F)cc4)CC3)cc12
2. Cc1c(C(=O)NCCOC2CCC2)ccc2nn(CC3CN(C(=O)c4ccc(OC(F)(F)F)cc4)C3)cc12
3. Cc1c(C(=O)NCCN2CCC(F)(F)C2)ccc2nn(CC3CN(C(=O)c4ccc(Cl)cc4)C3)cc12

xx (xx: 10-100)
xxx (xxx > 100)
xxx (xxx > 100)
